observable: melting point

Worked cases, answers included:
COc1ccc(-c2cc(C(=O)NCCCC3CCCC3)cc(-c3ccccc3F)c2OCC(=O)O)cc1 = > 97 °C (dec.)
O=C(O)COc1c(-c2ccccc2)cc(C(=O)NCCCCCCCCc2ccccc2)cc1-c1cc(Cl)cc(Cl)c1 = 82 to 83.1 °C
O=C(O)COc1c(Br)cc(C(=O)NCCCCCCCCc2ccccc2)cc1-c1ccccc1F = > 79 °C (dec.)
COc1ccc(-c2cc(C(=O)NCCCCCCc3ccccc3)cc(-c3cccc(C(F)(F)F)c3)c2OCC(=O)O)cc1 = 153 to 159 °C
COc1ccc(-c2cc(C(=O)NCCCCCCCCc3ccccc3)cc(-c3ccc(OC)cc3)c2OCC(=O)[O-])cc1.[Na+] = > 95 °C
O=C(O)COc1c(Br)cc(C(=O)N(CCc2ccccc2)Cc2ccccc2)cc1-c1cccc(Cl)c1 = > 72 °C (dec.)
CCCCCCCCCCCCNC(=O)c1cc(Br)c(OCCn2ccnn2)c(-c2cccc(C(F)(F)F)c2)c1 = 70.5 to 72.5 °C
CCCCCCCCCCCCCCOc1cc(-c2ccccc2)c(OCC(=O)O)c(-c2ccccc2)c1 = 89 to 90 °C
CC(C)(COc1c(-c2cccc(C(F)(F)F)c2)cc(C(=O)NCCCCCCCc2ccccc2)cc1-c1cccc(C(F)(F)F)c1)C(=O)O = 130 to 132 °C
CCCCCCCCCCCCNC(=O)c1cc(-c2cccc(Cl)c2)c(OCC(=O)O)c(-c2cccc(Cl)c2)c1 = 151 to 156 °C

So what's the measured melting point for this one? CCCCCCCCCCCCNC(=O)c1cc(Br)c(OCC(=O)O)c(-c2cccc(Cl)c2)c1
> 100 °C (dec.)

So what's the measured melting point for this one? CCOP(=O)(COc1c(-c2cccc(C(F)(F)F)c2)cc(C(=O)NCCCCCCCc2ccccc2)cc1-c1cccc(C(F)(F)F)c1)OCC (hydrate or solvate)
84 to 85 °C

So what's the measured melting point for this one? COc1ccc(-c2cc(C(=O)NCCCCCCCCc3ccccc3)cc(-c3ccccc3F)c2OCC(=O)O)cc1
> 84 °C (dec.)

So what's the measured melting point for this one? O=C(O)COc1c(-c2cccc(Cl)c2)cc(C(=O)NCCCCCCCCc2ccccc2)cc1-c1cccc(Cl)c1
165 to 167 °C

So what's the measured melting point for this one? CN(CCCCCCCCc1ccccc1)C(=O)c1cc(-c2cccc(Cl)c2)c(OCC(=O)O)c(-c2cccc(Cl)c2)c1
> 44 °C (dec.)

----------
target: recombinant, human protein tyrosine phosphatase (PTP) 1B (hPTP1B) (Homo sapiens); assay: Inhibition of tri-phosphorylated insulin receptor dodecaphosphopeptide dephosphorylation by hPTP1B; conditions: 50 μM IR triphosphopeptide substrate, 5 min preincubation and 5 min reaction at 37° C., malachite green-ammonium molybdate phosphate detection
Sequence (P18031 whole entry): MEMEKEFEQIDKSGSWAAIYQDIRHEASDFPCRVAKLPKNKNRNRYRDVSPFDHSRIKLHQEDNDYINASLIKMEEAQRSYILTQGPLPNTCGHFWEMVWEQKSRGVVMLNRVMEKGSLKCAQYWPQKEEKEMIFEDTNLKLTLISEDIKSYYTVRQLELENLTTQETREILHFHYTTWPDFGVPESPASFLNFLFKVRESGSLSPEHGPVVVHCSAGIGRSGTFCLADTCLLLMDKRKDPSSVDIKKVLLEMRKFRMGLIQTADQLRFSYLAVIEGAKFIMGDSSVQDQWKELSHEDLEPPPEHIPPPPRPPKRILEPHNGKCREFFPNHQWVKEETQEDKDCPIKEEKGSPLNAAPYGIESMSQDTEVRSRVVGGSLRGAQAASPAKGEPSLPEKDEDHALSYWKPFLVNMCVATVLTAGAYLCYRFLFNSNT
observable: pIC50
When answering, recall that pIC50 equals minus log10 of the concentration in mol/L, and write that number alone.

Cc1cc(OCCCCCCCCNC(=O)c2cc(-c3cccc(Cl)c3)c(OCC(=O)O)c(-c3cccc(Cl)c3)c2)ccc1F = 6.50

So what's the measured pIC50 for this one? O=C(O)COc1c(-c2cccc(C(F)(F)F)c2)cc(C(=O)NCCCCCCCCc2ccccc2)cc1-c1ccccc1F
6.35

So what's the measured pIC50 for this one? CCCCCCCCCCCCNC(=O)c1cc(-c2ccc(OC)cc2)c(OCC(=O)O)c(-c2ccc(OC)cc2)c1
6.78

So what's the measured pIC50 for this one? Cc1cc(C)cc(-c2cc(C(=O)NCCCCCCCc3ccccc3)cc(-c3cc(C)cc(C)c3)c2OCCCC(=O)O)c1
6.60
